B1: GOLPH3 (parent)
chain: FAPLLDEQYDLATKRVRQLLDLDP

variants of: B1; assay: protein stability index of a GFP-peptide fusion (GPS, HEK-293T) (PSI 1-6); higher = more stable; settings: c terminus: a fixed tail appended;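 also: lentivirally expressed fusions sorted by FACS into six bins by GFP to DsRed ratio, PSI derived from sequencing read proportions per bin multiplied by bin number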
protein stability index of 2 or higher: 1.0. Under 2: 0.0.

Lookup: API: above_or_equal(metric=protein stability index, cutoff=2) for item Q8C
Found: 1.0

Lookup: // same read-out, input: A2L
Found: 1.0

Lookup: // same read-out, input: Q8S
Found: 1.0

Lookup: // same read-out, input: L4E
Found: 1.0

Lookup: // same read-out, input: E7Q
Found: 1.0

Lookup: // same read-out, input: L22P
Found: 1.0

Lookup: // same read-out, input: Q18D
Found: 1.0

Lookup: // same read-out, input: V16Q
Found: 1.0

Lookup: // same read-out, input: L11M
Found: 1.0

Lookup: // same read-out, input: L19Y
Found: 0.0

Lookup: // same read-out, input: R15Q
Found: 1.0

Lookup: // same read-out, input: L19D
Found: 1.0

Lookup: // same read-out, input: L5M
Found: 1.0

Lookup: // same read-out, input: D23W
Found: 1.0

Lookup: // same read-out, input: R15L
Found: 1.0

Lookup: // same read-out, input: L4I
Found: 1.0

Lookup: // same read-out, input: D10C
Found: 1.0

Lookup: // same read-out, input: L4P
Found: 1.0

Lookup: // same read-out, input: E7M
Found: 0.0

Lookup: // same read-out, input: Q18Y
Found: 0.0

Lookup: // same read-out, input: K14Q
Found: 0.0

Lookup: // same read-out, input: L22R
Found: 1.0

Lookup: // same read-out, input: A2T
Found: 1.0

Lookup: // same read-out, input: R15D
Found: 1.0

Lookup: // same read-out, input: A2Q
Found: 1.0

Lookup: // same read-out, input: A2S
Found: 1.0

Lookup: // same read-out, input: D21P
Found: 0.0

Lookup: // same read-out, input: P3R
Found: 0.0

Lookup: // same read-out, input: K14R
Found: 1.0

Lookup: // same read-out, input: Y9R
Found: 1.0

Lookup: // same read-out, input: A2V
Found: 1.0

Lookup: // same read-out, input: P3D
Found: 1.0

Lookup: // same read-out, input: R15A
Found: 1.0

Lookup: // same read-out, input: T13V
Found: 1.0

Lookup: // same read-out, input: P3V
Found: 1.0

Lookup: // same read-out, input: L5F
Found: 1.0

Lookup: // same read-out, input: D23C
Found: 1.0

Lookup: // same read-out, input: L19M
Found: 0.0

Lookup: // same read-out, input: L4K
Found: 1.0

Lookup: // same read-out, input: F1K
Found: 1.0

Lookup: // same read-out, input: E7S
Found: 1.0

Lookup: // same read-out, input: V16H
Found: 0.0

Lookup: // same read-out, input: R17D
Found: 1.0

Lookup: // same read-out, input: D23M
Found: 0.0
